system: Plasmodium falciparum; test: Calibr Malaria Delayed Death Assay SOP; assay type: functional, organism-based; parameters: scale not given: in the data most compounds retested in dose-response had high values; conditions: concentration 4.99e-06 (unit not given; other assays of the set use mol/L)
About 1,200 (3.2%) of roughly 38,000 compounds showed an effect of 50% or more. The median lay at about -58%. The sample holds strong results, similar compounds and a random draw of the others, so the mix is not that of the screen.
measurement-label: Percent Effect (%)
Please state the figure in %; there is no need to write the unit.

Cc1noc(C)c1CS(=O)(=O)CC(=O)N1CCc2sccc2C1    -29.06

// query Consider the compound CCc1nc(CC2CN(c3ncnc4sc(C)c(C)c34)CCO2)no1 (centres undefined) and give its recorded Percent Effect.
// result -116.3

// query Consider the compound COc1ccc(CN(C)CCS(=O)(=O)c2ccc(Cl)cc2)cc1OC and give its recorded Percent Effect.
// result -60.68

// query Consider the compound O=C(NCc1cc[nH]n1)N1CCN(c2ncccn2)CC1 and give its recorded Percent Effect.
// result -98.04

// query Consider the compound Cc1cc(CNC(=O)c2ccno2)c(C)o1 and give its recorded Percent Effect.
// result -93.35

// query Consider the compound CCCN(C)CC1CCN(c2ncc(Br)cn2)C1 (centres undefined) and give its recorded Percent Effect.
// result -74.37

// query Consider the compound C[C@@H]1CN(c2nc3c(cc2C(N)=O)CCC3)C[C@@]1(O)C1CCC1 and give its recorded Percent Effect.
// result -102.5

// query Consider the compound CC1=C(CCN2C[C@H](O)[C@@H](N3CCOCC3)C2)C(C)(C)CCC1 and give its recorded Percent Effect.
// result 77.23

// query Consider the compound COc1ccc2nnc(CCC(=O)Nc3nc4c(s3)CCC4)n2n1 and give its recorded Percent Effect.
// result -9.679

// query Consider the compound O=C(CNc1cc(-n2cnnn2)ccc1F)NCc1ccccc1 and give its recorded Percent Effect.
// result -22.04

// query Consider the compound c1csc(CN2CCCN(c3ccc(Cn4ccnc4)cn3)CC2)c1 and give its recorded Percent Effect.
// result -41.75

// query Consider the compound COCC1COCCC12CCN(Cc1cccs1)CC2.O=C(O)C(F)(F)F (centres undefined) and give its recorded Percent Effect.
// result -9.919

// query Consider the compound CC1=C(CCN2CC[C@@H](N3CCC(O)CC3)[C@H](O)C2)C(C)(C)CCC1 and give its recorded Percent Effect.
// result -51.59

// query Consider the compound Cc1cc(C)nc(NC2CCC(=O)N(C)C2)n1 (centres undefined) and give its recorded Percent Effect.
// result -38.75

// query Consider the compound CCN(C)CC1CCN(c2ncc(Br)cn2)C1 (centres undefined) and give its recorded Percent Effect.
// result -58.14

// query Consider the compound Cc1cccc(CN2CC3(CCN(Cc4ccco4)CC3)OCC2=O)n1.O=C(O)C(F)(F)F.O=C(O)C(F)(F)F and give its recorded Percent Effect.
// result -46.8

// query Consider the compound Cc1noc(Cl)c1CCC(=O)N1CCc2sccc2C1 and give its recorded Percent Effect.
// result 53

// query Consider the compound O=C(CNc1cc(-n2cnnn2)ccc1F)Nc1ccccc1Cl and give its recorded Percent Effect.
// result -49.6

// query Consider the compound Cc1nn(C)c(C)c1CCC(=O)N1CCc2sccc2C1 and give its recorded Percent Effect.
// result -11.91

// query Consider the compound O=C(CNc1cc(-n2cnnn2)ccc1F)Nc1cc(F)ccc1F and give its recorded Percent Effect.
// result 1.352
